# experimentalSystem: Amine oxidase [flavin-containing] A (Homo sapiens, UniProt P21397)
# Sequence (P21397 whole entry): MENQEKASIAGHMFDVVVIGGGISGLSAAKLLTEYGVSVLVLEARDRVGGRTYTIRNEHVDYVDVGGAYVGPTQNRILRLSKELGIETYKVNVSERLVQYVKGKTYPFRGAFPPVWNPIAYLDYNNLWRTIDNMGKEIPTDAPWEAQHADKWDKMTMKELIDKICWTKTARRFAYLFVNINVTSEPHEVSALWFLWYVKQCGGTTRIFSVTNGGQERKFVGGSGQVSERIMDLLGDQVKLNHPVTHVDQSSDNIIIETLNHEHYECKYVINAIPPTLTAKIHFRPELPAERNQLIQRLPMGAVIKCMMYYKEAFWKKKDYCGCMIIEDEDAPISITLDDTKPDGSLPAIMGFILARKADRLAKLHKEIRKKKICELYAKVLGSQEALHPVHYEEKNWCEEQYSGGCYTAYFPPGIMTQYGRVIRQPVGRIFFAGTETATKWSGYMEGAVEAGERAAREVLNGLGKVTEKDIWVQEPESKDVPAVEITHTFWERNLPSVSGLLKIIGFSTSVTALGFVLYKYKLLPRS
# protocolSummary: Inhibition of recombinant human MAO-A using kynuramine as substrate incubated for 15 mins by absorbance based assay
parameterMeasured: IC50 (µM)
Enter your answer as a number in µM; do not include the unit.

compoundStructure | parameterMeasured | experimentalValue
CC(=O)Nc1nnc(-c2ccc(N3CCCC3)c(F)c2)s1 | IC50 | 13.2

IC50 value, target or system Amine oxidase [flavin-containing] A (Homo sapiens, UniProt P21397), for `CCCCS(=O)(=O)Nc1nnc(-c2ccc(N3CCSCC3)c(F)c2)s1` : 21.5

---

# protocolSummary: Cytotoxicity against human THP-1 cells incubated for 3 days by Cell Titer-Glo Luminescent Cell Viability Assay
# Assay type: toxicity, cell-based
parameterMeasured: IC50 at 3 days

Record `CC(=O)Nc1nnc(-c2ccc(N3CCSCC3)c(F)c2)s1` , field IC50 at 3 days: > 300 µg/mL

Record `CCS(=O)(=O)Nc1nnc(-c2ccc(N3CCSCC3)c(F)c2)s1` , field IC50 at 3 days: > 300 µg/mL

---

# experimentalSystem: Amine oxidase [flavin-containing] B (Homo sapiens)
# Sequence (P27338 whole entry): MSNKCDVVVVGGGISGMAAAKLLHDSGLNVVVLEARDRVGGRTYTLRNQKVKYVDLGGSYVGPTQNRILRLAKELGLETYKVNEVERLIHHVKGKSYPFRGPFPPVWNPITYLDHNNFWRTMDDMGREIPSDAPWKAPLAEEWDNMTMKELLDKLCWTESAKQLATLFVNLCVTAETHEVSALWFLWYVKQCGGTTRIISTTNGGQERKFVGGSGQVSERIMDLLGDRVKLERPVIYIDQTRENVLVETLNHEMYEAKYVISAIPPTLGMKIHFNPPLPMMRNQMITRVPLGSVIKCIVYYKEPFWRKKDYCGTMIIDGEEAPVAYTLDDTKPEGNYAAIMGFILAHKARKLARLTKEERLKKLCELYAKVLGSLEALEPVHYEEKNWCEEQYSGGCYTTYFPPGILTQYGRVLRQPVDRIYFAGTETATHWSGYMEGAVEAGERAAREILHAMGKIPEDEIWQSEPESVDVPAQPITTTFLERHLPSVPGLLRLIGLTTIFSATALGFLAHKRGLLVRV
Lab note - cut at 50 nM for IC50: Satisfied if strictly below, Not satisfied if not.

For orientation, consider the following solved cases.
compoundStructure | cat
CC(=O)Nc1nnc(-c2ccc(N3CCSCC3)c(F)c2)s1 | Not satisfied
CCS(=O)(=O)Nc1nnc(-c2ccc(N3CCSCC3)c(F)c2)s1 | Satisfied

# strict comparison: is reported IC50 < 50 nM? input = `CC(=O)Nc1nnc(-c2ccc(N3CCCC3)c(F)c2)s1` Not satisfied

# strict comparison: is reported IC50 < 50 nM? input = `O=C(Nc1nnc(-c2ccc(N3CCSCC3)c(F)c2)s1)C1CC1` Not satisfied

# strict comparison: is reported IC50 < 50 nM? input = `CC(=O)Nc1nnc(-c2ccc(N3CCOCC3)c(F)c2)s1` Not satisfied

# strict comparison: is reported IC50 < 50 nM? input = `CS(=O)(=O)Nc1nnc(-c2ccc(N3CCSCC3)c(F)c2)s1` Satisfied

---

IC50 overview
# experimentalSystem: Amine oxidase [flavin-containing] A (Homo sapiens, UniProt P21397)
# protocolSummary: Inhibition of recombinant human MAO-A using kynuramine as substrate incubated for 15 mins by absorbance based assay
Enter your answer as a number in µM; do not include the unit.

The examples below pair each entry with its known result.
compoundStructure | experimentalSystem | IC50 (µM)
O=S(=O)(Nc1nnc(-c2ccc(N3CCSCC3)c(F)c2)s1)C1CC1 | Amine oxidase [flavin-containing] A (Homo sapiens, UniProt P21397) | 26
CCS(=O)(=O)Nc1nnc(-c2ccc(N3CCSCC3)c(F)c2)s1 | Amine oxidase [flavin-containing] A (Homo sapiens, UniProt P21397) | 15.8
CC(=O)Nc1nnc(-c2ccc(N3CCSCC3)c(F)c2)s1 | Amine oxidase [flavin-containing] A (Homo sapiens, UniProt P21397) | 8.96

Next up:
Record `CS(=O)(=O)Nc1nnc(-c2ccc(N3CCSCC3)c(F)c2)s1` , field IC50: 18.4

meta.source: ChEMBL document CHEMBL6121031
